Property: protein stability index; scope: individual sequences
test: protein stability index of a GFP-peptide fusion (yeast GPS) (PSI 1-4); higher = more stable; sorted into four equal gates, so the index is relative within each strain; settings: san1∆
// response body must contain only the number

>>> numeric_readout("GLGYVFEFQYLTIGVKF [SRB5]")
1.08
>>> numeric_readout("TKDLLSKSPSEWQDIIH [CSE2]")
3.07
>>> numeric_readout("HSISEAENMLEELRGQQ [SMC4]")
3.35
>>> numeric_readout("LSDLSSPVQDWNLLRSL [YML103C/NUP188]")
2.86
>>> numeric_readout("IKNLTVQLSPSNPQHII [RGR1]")
2.42
>>> numeric_readout("NNKITQLIAKNVANVSG [SIR3]")
2.07
>>> numeric_readout("FESSSSLPFLLRHMPLA [SSN2]")
2.76
>>> numeric_readout("NNAHSSDLGTVVFDSNE [YMR153W/NUP53]")
2.24

Look up protein stability index: IDNYITNSVRLFEVNPS [SRP21] 2.54

Then what about the sequence FKVYEPLLLVGLDKFSN [RPS16A] ? 1.85

###

test: protein stability index of a GFP-peptide fusion (yeast GPS) (PSI 1-4); higher = more stable; sorted into four equal gates, so the index is relative within each strain; conditions: doa10∆
readout type: protein stability index
// response body must contain only the number

>>> numeric_readout("MIKESSTANPNIKLLNN [POP1]")
3.07
>>> numeric_readout("EERMGQIENLNEVCLEK [SMC4]")
3.48
>>> numeric_readout("TRVRLPSGAKKVISSDA [RPL2A]")
3.25
>>> numeric_readout("PQTPLVEPVTERTKLQE [SNU114]")
3.29
>>> numeric_readout("IVGVLQDDADPMVSVMK [RPT2]")
1.99
>>> numeric_readout("ASRHGQKGTIGITYRRE [RPB2]")
2.53
>>> numeric_readout("TEVRAEDEAALAKLVST [RPL8A]")
2.9
>>> numeric_readout("KIADNISKDENEDQFLE [YDL116W/NUP84]")
2.92
>>> numeric_readout("ENELVITSIPKPLTENC [RMP1]")
3.42

Alright, here's another sequence for you.
Look up protein stability index: ENVEKKEAALKTMIKTI [SMC2] 1.93

###

experiment: protein stability index of a GFP-peptide fusion (yeast GPS) (PSI 1-4); higher = more stable; sorted into four equal gates, so the index is relative within each strain; conditions: san1∆
Classify as follows. Reported protein stability index greater than or equal to 2: Condition met. Reported protein stability index below: Condition not met.

>>> discrete_label("PSDWQRNSFIRDMIMKR [ITC1]")
"Condition met"
>>> discrete_label("TPDATKIKAILESVGIE [RPP2A]")
"Condition met"
>>> discrete_label("LRDDTLPKAWISLAVEG [COR1]")
"Condition not met"
>>> discrete_label("RSATGAKRAQFRKKRKF [RPS8A]")
"Condition met"
>>> discrete_label("VLQYSDWESDLHIHLNQ [YDL116W/NUP84]")
"Condition met"
>>> discrete_label("LFKNYRFNFISKYFIID [YMR129W/POM152]")
"Condition not met"
>>> discrete_label("EILYYQIKTLPEQYSDI [AAR2]")
"Condition met"
>>> discrete_label("KKRNPSKQNGSKFHFSW [PRP28]")
"Condition met"

Could you tell me if the measured protein stability index of EERMGQIENLNEVCLEK [SMC4] reaches 2 or more? Condition met

Then what about the sequence ADTKAPTFTFGSSALAD [YLR335W/NUP2] ? Condition met

###

assay: protein stability index of a GFP-peptide fusion (yeast GPS) (PSI 1-4); higher = more stable; sorted into four equal gates, so the index is relative within each strain; settings: pdr5∆
readout type: protein stability index
// response body must contain only the number

Solved entries:
>>> numeric_readout("LEKLVDHHPEGLSAREA [PRE10]")
2.9
>>> numeric_readout("TNQKDTNDHVDKRTKID [ISW2]")
3.05

Alright, here's another sequence for you.
Look up protein stability index: NVIRSLEQEYRLILLLN [RMP1] 1.19

###

experiment: protein stability index of a GFP-peptide fusion (yeast GPS) (PSI 1-4); higher = more stable; sorted into four equal gates, so the index is relative within each strain; details: doa10∆
readout type: protein stability index
// response body must contain only the number

Look up protein stability index: TDQSTEEEKSVDASPND [CSL4] 2.88

Then what about the sequence ELQMRSFLKEGDLLNAE [RRP4] ? 2.71

Then what about the sequence QKLDILVAKLKKVKSAS [SMC4] ? 2.64

Then what about the sequence DQNEFLLERTREIHNEA [FAS2] ? 3.12

Then what about the sequence LLKLIEPYVAYGYPSYS [RPL7A] ? 2.07

Then what about the sequence SLSRDFVMKTRRRKGIS [SNU114] ? 3.25

###

experiment: protein stability index of a GFP-peptide fusion (yeast GPS) (PSI 1-4); higher = more stable; sorted into four equal gates, so the index is relative within each strain; conditions: san1∆
readout type: protein stability index
// response body must contain only the number

>>> numeric_readout("VHELSKRVHTLLTLIVR [ISW2]")
1.96
>>> numeric_readout("QCYKIYDLVILKSGLPL [YMR129W/POM152]")
2.25
>>> numeric_readout("DLCSLKPYVDRFAFSVI [DIS3]")
1.93
>>> numeric_readout("GGNGPEDFQQHEQIRRK [RPO26]")
3.09

Look up protein stability index: RAVLTPLITRHCYPRQL [RRP46] 2.36

Then what about the sequence FQSVQLNINNPNFLIMQ [SMC2] ? 1.75

###

Property: protein stability index; scope: individual sequences
experiment: protein stability index of a GFP-peptide fusion (yeast GPS) (PSI 1-4); higher = more stable; sorted into four equal gates, so the index is relative within each strain; conditions: san1∆

>>> result("VIAKLNHNQFECKGCDN [RPB2]")
3

Look up protein stability index: LGGDSDEANIEIDPLTG [BRN1] 2.92

Then what about the sequence TVENPLRNWEELNIIPR [PRP28] ? 1.48

Then what about the sequence LPVKWETTTQFKATHIL [FAS1] ? 2.23

###

assay: protein stability index of a GFP-peptide fusion (yeast GPS) (PSI 1-4); higher = more stable; sorted into four equal gates, so the index is relative within each strain; settings: doa10∆
Classify as follows. Reported protein stability index greater than or equal to 3: True. Reported protein stability index below: False.

>>> discrete_label("EIMQQKFPATNVTTILD [ECM29]")
"False"
>>> discrete_label("GLVCADTFRAGAFDQLK [SRP54]")
"True"
>>> discrete_label("GFIFTSMILEAISTDKI [RRI2]")
"False"
>>> discrete_label("VHDLNKYKSNTNNMEKI [SMC2]")
"True"
>>> discrete_label("EEKVIERAAQKLRLDQL [ISW2]")
"False"
>>> discrete_label("RSSRLHIVYSLLVNPDI [YML103C/NUP188]")
"False"
>>> discrete_label("IFSYGPHIQKMLSILEI [POP6]")
"False"
>>> discrete_label("FKSYATRTVITDWDPQF [SMC2]")
"False"

Could you tell me if the measured protein stability index of NWRSFNAKIIDAEVAQF [SRP68] reaches 3 or more? False

Then what about the sequence QPKAPRAPKVIHGQDFQ [ISW2] ? False

###

assay: protein stability index of a GFP-peptide fusion (yeast GPS) (PSI 1-4); higher = more stable; sorted into four equal gates, so the index is relative within each strain; details: doa10∆
readout type: protein stability index
// response body must contain only the number

Solved entries:
>>> numeric_readout("QVNQLQRILEVLGTPDQ [SSN3]")
1.49
>>> numeric_readout("NKTSNNNNVTAVPAATP [SWI1]")
2.84

Alright, here's another sequence for you.
Look up protein stability index: DLIKFSAETLSELIRTT [FAS1] 2.1

###

experiment: protein stability index of a GFP-peptide fusion (yeast GPS) (PSI 1-4); higher = more stable; sorted into four equal gates, so the index is relative within each strain; settings: doa10∆
Classify as follows. Reported protein stability index greater than or equal to 3: criterion met. Reported protein stability index below: criterion not met.

>>> discrete_label("SFKLCTLLIAIRGSNRD [YML103C/NUP188]")
"criterion not met"
>>> discrete_label("VLKCLKSLESQRYVKSV [RPC34]")
"criterion not met"
>>> discrete_label("DYINELSNSNRFELHGD [REC8]")
"criterion not met"
>>> discrete_label("AIPNPEDVVAISSRTYG [RPS0B]")
"criterion met"
>>> discrete_label("ETHPDNSNKQAVAILAD [BRR2]")
"criterion not met"
>>> discrete_label("LLINTNFNKFFKIWHGE [PCI8]")
"criterion not met"
>>> discrete_label("NGKTRTLENTLKAAFVA [RPS2]")
"criterion not met"
>>> discrete_label("ISTSDVTRIINSSEIQS [RPL4A]")
"criterion not met"

Could you tell me if the measured protein stability index of IDSINGPDTKGQLEDFD [SMC3] reaches 3 or more? criterion met
